assay: inhibitors of Clostridioides difficile proliferation – 4-point retest, confirmation (AID 1224921); conditions: Clostridioides difficile clinical isolate growth, OD600, 24 h, active compounds read low; at 30 µM unless noted;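 further: plate controls were DMSO wells for no effect and levofloxacin 16 µg/mL wells for full effect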
Among all 1,400 compounds or so, about 350 (25%) were called active. Inconclusive results (about 2%) are left out. These entries were drawn from the full list. Results with a measured potency or affinity are listed apart.
Consider the following molecules; for each one, report its max activity.

Given the molecule C[C@H]1CN([C@@H](C)CO)C(=O)c2cc(NC(=O)Nc3cccc4ccccc34)ccc2O[C@@H]1CN(C)S(=O)(=O)c1ccccc1 , write its reported max activity. 37.2% (inactive)

Given the molecule CCCC#Cc1ccc2c(c1)O[C@@H](CN(C)Cc1ccncc1)[C@@H](C)CN([C@@H](C)CO)S2(=O)=O , write its reported max activity. -13.3% [at 8 µM] (inactive)

Given the molecule CN(C)C(=O)C[C@H]1CC[C@H](NC(=O)C2CCOCC2)[C@@H](CO)O1 , write its reported max activity. -6% (inactive)

Values compiled from PubChem BioAssay AID1224921.
